# ASSAY REMARKS: HILIC, Waters ACQUITY UPLC BEH Amide, 100 × 2.1 mm, 1.7 µm; A: water + 0.125% formic acid + 10 mM ammonium formate; B: 5% water + 95% acetonitrile + 0.125% formic acid + 10 mM ammonium formate; gradient (min/%B) 0/100 2/100 7.7/70 9.5/40 10.25/30 12.75/100 17/100
# TEST PARAMETERS: stereoisomer not certain
VALUE TYPE: LC retention time (min)
Number only, in min; omit the unit.

NC(CC(=O)O)C(=O)NC(Cc1ccccc1)C(=O)O (centres undefined) ... 8.14
CCOC(=O)C(CCc1ccccc1)NC1CCc2ccccc2N(CC(=O)O)C1=O (centres undefined) ... 1.33
C=C1CC2C(CCC3(C)C(=O)CCC23)C2(C)C=CC(=O)C=C12 (centres undefined) ... 0.98

Recorded LC retention time for COC(=O)C1=C(C)NC(C)=C(C(=O)OC(C)C)C1c1cccc2nonc12 (centres undefined) , please? 0.95

Then this compound: Nc1ncnc2c1ncn2C1CC2OP(=O)(O)OCC2O1 (centres undefined) 7.29

Then this compound: `C=Cc1ccc(O)c(OC)c1` 8.71

====

# ASSAY REMARKS: HILIC, Waters ACQUITY UPLC BEH Amide, 100 × 2.1 mm, 1.7 µm; A: water + 0.125% formic acid + 10 mM ammonium formate; B: 5% water + 95% acetonitrile + 0.125% formic acid + 10 mM ammonium formate; gradient (min/%B) 0/100 2/100 7.7/70 9.5/40 10.25/30 12.75/100 17/100
# TEST PARAMETERS: stereoisomer not certain
Form field: LC retention time (one value per entry).
Hey, just the number and the unit after it is fine.

See these solved cases before continuing.
COC(=O)C1C(OC(=O)c2ccccc2)CC2CCC1N2C (stereo not drawn) ... 2.2 min
CN(C)CCC=C1c2ccccc2COc2ccccc21 [Doxepin] ... 2.26 min
O=C(O)C(=O)Cc1c[nH]c2ccccc12 ... 5.11 min

Recorded LC retention time for CN1C(=O)CCC1c1cccnc1 (stereo not drawn) , please? 1.49 min

Then this compound: O=P(O)(O)OCC(O)C(O)C(O)C(O)CO (stereo not drawn) [Sorbitol-6-phosphate] 9.75 min

Then this compound: COc1cc2c(cc1OC)C1C(C)c3ccc(OC)c(OC)c3CN1CC2 (stereo not drawn) 1.52 min

====

# ASSAY REMARKS: HILIC, Waters ACQUITY UPLC BEH Amide, 100 × 2.1 mm, 1.7 µm; A: water + 0.125% formic acid + 10 mM ammonium formate; B: 5% water + 95% acetonitrile + 0.125% formic acid + 10 mM ammonium formate; gradient (min/%B) 0/100 2/100 7.7/70 9.5/40 10.25/30 12.75/100 17/100
# TEST PARAMETERS: stereoisomer not certain
Form field: LC retention time (one value per entry).
Number only, in min; omit the unit.

Nc1ncnc2c1[nH]c(=O)n2C1CC(O)C(CO)O1 (configuration not stated) ... 5.11
CC(=O)NC(CCCN)C(=O)O (configuration not stated) ... 8.31
CN[C@@H](CCCCN)C(=O)O ... 7.35

Recorded LC retention time for CC(C)NCC(O)c1ccc(NS(C)(=O)=O)cc1 (configuration not stated) , please? 4.87

Then this molecule: `CN1CCN(C2=Nc3cc(F)ccc3Cc3ccccc32)CC1` 2.3

Then this molecule: COC(=O)c1cc(O)c(O)c(O)c1 [Methylgallate] 1.43

Then this molecule: NC(Cc1ccc(O)cc1)C(=O)NC(Cc1ccc(O)cc1)C(=O)NC(Cc1ccc(O)cc1)C(=O)O (configuration not stated) 7.09

====

Form field: LC retention time (one value per entry).
# ASSAY REMARKS: HILIC, Waters ACQUITY UPLC BEH Amide, 100 × 2.1 mm, 1.7 µm; A: water + 0.125% formic acid + 10 mM ammonium formate; B: 5% water + 95% acetonitrile + 0.125% formic acid + 10 mM ammonium formate; gradient (min/%B) 0/100 2/100 7.7/70 9.5/40 10.25/30 12.75/100 17/100
# TEST PARAMETERS: stereoisomer not certain
Number only, in min; omit the unit.

See these solved cases before continuing.
CC(C)=CCN1CCC2(C)c3cc(O)ccc3CC1C2C (centres undefined) [Pentazocine] ... 2.65
NC(CO)C(=O)O (centres undefined) [Serine] ... 8.73
O=C(O)CCP(=O)(O)O [3-Phosphonopropionic acid] ... 8.59
CSCCCN [3-Methylthiopropylamine] ... 5.16
NC(=O)NC(N)=O [Biuret] ... 2.73
O=C1C2CCCCC2C(=O)N1CCCCN1CCN(c2nsc3ccccc23)CC1 (centres undefined) [Perospirone] ... 2.14
O=C(O)CP(=O)(O)O [Phosphonoacetic acid] ... 9.73
CCCCCCCCOC(=O)c1ccccc1C(=O)OCCCCCCCC [Dioctyl Phthalate] ... 0.96

Recorded LC retention time for Oc1cc2ccccc2[nH]1 [2-Indolinone] , please? 1.36

Then this compound: Nc1ccc(C(=O)O)cc1 [4-Aminobenzoic acid] 7.49

Then this compound: NC(=O)c1ccccc1 [Benzamide] 1.27

Then this compound: CCCc1nc(C)c2c(=O)[nH]c(-c3cc(S(=O)(=O)N4CCN(CC)CC4)ccc3OCC)nn12 [Vardenafil] 1.7

Then this compound: O=P(O)(O)OC1OC(CO)C(O)C(O)C1O (centres undefined) [Glucose-1-phosphate] 9.61

Then this compound: Br.CN1CCC2(c3cccc(O)c3)Cc3nc4ccccc4cc3CC2C1.O (centres undefined) 5.11

Then this compound: O=C(C=Cc1ccc(O)c(O)c1)OC1CC(O)(C(=O)O)CC(O)C1O (centres undefined) [Chlorogenic acid] 6.68

Then this compound: CC(C)(C)NC(=O)C1CN(Cc2cccnc2)CCN1CC(O)CC(Cc1ccccc1)C(=O)NC1c2ccccc2CC1O (centres undefined) [Indinavir] 2.17

Then this compound: NCCc1ccccc1 [Phenethylamine] 4.87

Then this compound: NCC1CCC(C(=O)O)CC1 (centres undefined) [4-Aminomethylcyclohexanecarboxylic acid] 6.6

Then this compound: COc1ccc(C2CNC(=O)C2)cc1OC1CCCC1 (centres undefined) [Rolipram] 1.12

====

# ASSAY REMARKS: HILIC, Waters ACQUITY UPLC BEH Amide, 100 × 2.1 mm, 1.7 µm; A: water + 0.125% formic acid + 10 mM ammonium formate; B: 5% water + 95% acetonitrile + 0.125% formic acid + 10 mM ammonium formate; gradient (min/%B) 0/100 2/100 7.7/70 9.5/40 10.25/30 12.75/100 17/100
# TEST PARAMETERS: stereoisomer not certain
Please use satisfied whenever LC retention time is not below 2 min, and not satisfied whenever it is.

Look over these answered cases.
CS(=O)(=O)c1ccc(C2=C(c3ccccc3)C(=O)OC2)cc1 [Rofecoxib] ... not satisfied
CN(C)CC(=O)O [N,N-Dimethylglycine] ... satisfied
CC(C)CCCC(C)C1CCC2C3C(O)C=C4CC(O)CCC4(C)C3CCC12C (stereo not drawn) [5-Cholesten-3-beta-7-alpha-diol] ... satisfied
c1ccc2c3c([nH]c2c1)CNCC3 [Tryptoline] ... satisfied

Could you now consider this next compound?
In plain terms: is recorded LC retention time at least 2 min for COc1cc2c(cc1OC)C(=O)C(CC1CCN(Cc3ccccc3)CC1)C2 (configuration not stated) [Donepezil] ? satisfied

====

Form field: LC retention time (one value per entry).
# ASSAY REMARKS: HILIC, Waters ACQUITY UPLC BEH Amide, 100 × 2.1 mm, 1.7 µm; A: water + 0.125% formic acid + 10 mM ammonium formate; B: 5% water + 95% acetonitrile + 0.125% formic acid + 10 mM ammonium formate; gradient (min/%B) 0/100 2/100 7.7/70 9.5/40 10.25/30 12.75/100 17/100
# TEST PARAMETERS: stereoisomer not certain
Number only, in min; omit the unit.

See these solved cases before continuing.
CC(=O)NC(Cc1cnc[nH]1)C(=O)O (stereo not drawn) ... 8.07
O=c1ccn(C2OC(COP(=O)(O)O)C(O)C2O)c(=O)[nH]1 (stereo not drawn) [Uridine 5'-monophosphate] ... 8.97
OC1CCCCC1N1CCC(c2ccccc2)CC1 (stereo not drawn) ... 2.65
CCOC(=O)c1ncn2c1CN(C)C(=O)c1cc(F)ccc1-2 ... 1.08
CCCN1CCCCC1C(=O)Nc1c(C)cccc1C (stereo not drawn) ... 2.49

Recorded LC retention time for CC(C)CC1NC(=O)C2CCCN2C1=O (stereo not drawn) , please? 1.29

Then this compound: O=C1CCC(C(=O)O)N1 (stereo not drawn) 8.71

Then this compound: CC(=O)Nc1ccc(OC2OC(C(=O)O)C(O)C(O)C2O)cc1 (stereo not drawn) [Acetaminophen glucuronide] 7.73

Then this compound: Cn1cnc2c(ncn2C2OC(CO)C(O)C2O)c1=N (stereo not drawn) 7.46

Then this compound: `CN(C)CCCSc1ccccc1NC(=O)C=Cc1ccccc1` 2.61
